# study.system: T1, recombinant human DLL4 (C-terminally His-tagged extracellular domain, R&D Systems) (human, UniProt Q9NR61 25-522, biotinylated in the competition ELISA)
# T1 construct: also called rhDLL4; hDLL4
# T1 sequence (Q9NR61 25-522): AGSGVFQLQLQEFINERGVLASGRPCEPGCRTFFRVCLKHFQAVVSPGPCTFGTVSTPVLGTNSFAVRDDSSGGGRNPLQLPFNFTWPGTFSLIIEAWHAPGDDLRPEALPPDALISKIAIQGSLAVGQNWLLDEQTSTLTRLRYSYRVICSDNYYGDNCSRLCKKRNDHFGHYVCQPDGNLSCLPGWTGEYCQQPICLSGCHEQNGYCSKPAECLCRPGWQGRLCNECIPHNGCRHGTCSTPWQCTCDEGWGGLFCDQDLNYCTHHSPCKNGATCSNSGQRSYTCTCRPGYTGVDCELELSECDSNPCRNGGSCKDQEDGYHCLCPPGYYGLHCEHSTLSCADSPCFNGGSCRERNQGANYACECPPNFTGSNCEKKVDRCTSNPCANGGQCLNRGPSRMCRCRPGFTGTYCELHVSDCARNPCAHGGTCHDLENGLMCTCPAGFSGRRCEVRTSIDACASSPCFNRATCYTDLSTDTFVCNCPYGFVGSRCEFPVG
# method.description: SPR (Biacore), recombinant human DLL4
I'd appreciate it if you could supply log10(koff) values for the items below.
Scale: log10; quantity: koff; unit before log: s⁻¹

Challenge: Could you share which log10(koff) value was measured for DLLBII022 (VHH, not shown: small tags and cut ends) VHH: EVQLVESGGGLVQPGGSLRLSCAASGFTFGSYDMSWVRQAPGKGPEWVSSINSGGGSTYYADYVKGRFTISRDNAKNTLYLQMNSLRPEDTAVYYCAADRYIWARQGEYWGAYEYDYWGQGTLVTVSS ?
Response given: -1.66

Challenge: Request the reported log10(koff) associated with DLLBII018 (VHH, not shown: small tags and cut ends) VHH: EVQLVESGGGLVQPGGSLRLSCAASGRTFSSYAMAWYRQAPGKEREYVAAIRWSGGTAYYADSVKGRFTISRDNAKNTVYLQMNSLRPEDTAVYYCANRAPDTRLAPYEYDHWGQGTLVTVSS
Response given: -4.03

Challenge: Need log10(koff) of DLLBII039 (VHH, not shown: small tags and cut ends) VHH: EVQLVESGGGLVQPGGSLRLSCAASGFTIGSYDMSWVRRAPGKGPEWVSSISSGGGSTYYADYVKGRFTISRDNAKNTLYLQMNSLRPEDTAVYYCAADRYIWARQGEYWGAYEYDYWGQGTLVTVSS , thanks.
Response given: -3.09

Challenge: I am curious: what log10(koff) value has been reported for DLLBII129B05 (VHH, not shown: small tags and cut ends) VHH: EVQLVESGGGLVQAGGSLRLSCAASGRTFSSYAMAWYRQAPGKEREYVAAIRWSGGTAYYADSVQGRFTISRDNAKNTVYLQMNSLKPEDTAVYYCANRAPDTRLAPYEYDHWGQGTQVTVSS ?
Response given: -4.10

Challenge: Which log10(koff) is reported for this binder? DLLBII019 (VHH, not shown: small tags and cut ends) VHH: EVQLVESGGGLVQPGGSLRLSCAASGFTFGSYDMSWVRRSPGKGPEWVSSINSGGGSTYYADYVKGRFTISRDNAKNTLYLQMNSLRPEDTAVYYCAADRYIWARQGEYWGAYEYDYWGQGTLVTVSS
Response given: -3.13

Challenge: Returns the measured log10(koff) for the input binder. Input: DLLBII017 (VHH, not shown: small tags and cut ends) VHH: EVQLVESGGGLVQPGGSLRLSCAASGRTFSSYAMAWYRQAPGKEREYVAAIRWSGGTAYYADSVQGRFTISRDNAKNTVYLQMNSLRPEDTAVYYCANRAPDTRLAPYEYDHWGQGTLVTVSS
Response given: -4.10
